molecular target: HLA-C*08:02; test: IEDB peptide-MHC binding, purified MHC/direct/fluorescence; filed as Kd, often an IC50 or EC50 that approximates it; bounds were set here for any values at or beyond the usual limits of such assays; details: source organism: Entamoeba histolytica HM-1:IMSS
measured_metric: Kd

The observed Kd for FAMRLLQAV when tested with HLA-C*08:02 stands at 17 nM

----------
target: HLA-A*68:02; experiment: IEDB peptide-MHC binding, purified MHC/competitive/radioactivity; filed as Kd, often an IC50 or EC50 that approximates it; bounds were set here for any values at or beyond the usual limits of such assays; settings: source organism: Hepatitis C virus (isolate 1)
measured_metric: Kd

The recorded Kd for HPNIEEVAL is ≥ 69.8 µM
